# SYSTEM_TESTED: T1, human big-endothelin-1 (big-ET-1) (human)
# T1 construct: 38 amino acid peptide; also called human big-ET-1; hBig-ET-1
# T1 peptide: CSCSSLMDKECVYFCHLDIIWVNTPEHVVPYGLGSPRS
# ASSAY_TEXT: SPR (Biacore T200), 37 C, mAb capture, peptide analyte
QUANTITY_NAME: koff (s⁻¹)
Numbers only here, please. The scale is s⁻¹.

BINDER	koff, s⁻¹
H4H6353P (antibody, V domains shown, Human IgG4 Fc (prefix H4H)) VH: EVQLVESGGGLVKPGGSLRLSCAASGFSFNYAWMSWVRQAPGKGLEWIGRIKSKINGGTTDYTAPVKGRFTISRDDSKNTLYLQMNSLKTEDTAVYYCRGDEDFWGQGTLVTVSS VL: DVVMTQSPLSLPVTLGQPASISCRSSQSLVYSDGFTYLNWFRQRPGQSPRRLIYKVSNRDSGVPDRFSGSGSGTDFTLRISRVEAEDVGIYYCMQGTHWPYTFGQGTKLEIK	0.00116
H4H6317P (antibody, V domains shown, Human IgG4 Fc (prefix H4H)) VH: QVQLVESGGGVVQPGRSLRLSCAASGFTFSSYGMHWVRQAPGKGLEWVAVLWYDGRNKYYADSVKGRFTISRDNSKNTLYLQMNSLRAEDTAVYYCARSYDAFDIWGQGTMVTVSS VL: DIQMTQSPSTLSASVGDRVTITCRASQSISSWLAWFQQGPGRAPKLLIYKASTLQSGVPSRFSGSGSGTEFTLTISSLQPDDFATYYCQQYRSYSPTFGQGTKVEIK	0.000199
H2M6490N (antibody, V domains shown, Hybridoma antibody, human variable domains, mouse IgG2 Fc (prefix H2M)) VH: EVQLLESGGGLVQPGGSLRLSCAASGFTFSSYAMTWVRQAPGKGLECISAISGSGYSTYYADSMKGRFSISRDNSKNTLYLQMNRLRAEDTAVYYCTKGGRILEWLLPFDFWGQGTLVTVSS VL: DVVMTQSPLSLPVTLGQPASISCRSSQSLVYSDGNTYLIWFQQRPGQSPRRLIYKVSNRDSGVPDRFSGSGSGTDFTLIISRVEAEDVGLYYCMQGTHWPPTFGGGTKVEIK	0.00399
H4H6345P (antibody, V domains shown, Human IgG4 Fc (prefix H4H)) VH: EVQLVESGGGLVQPGGSLRLSCAASGFIFSSYAMTWVRQAPGKGLEWVSAISGSGVSTYYADSVKGRFTISRDNSKNTLYLQMNSLRIEDTAVYYCGKARTGTHAFDIWGQGTMVTVSS VL: DIQMTQSPSTLSASVGDRVTITCRASQSISRWLAWYQQKPGKAPKLLIYKASSLETGVPSRFSGSGSGTEFTLTISSLQPDDFGTYYCQQYNSYSSFGPGTKVDIK	0.058

Next up:
Query string: Look at this binder and give its reported koff. H1M6492N (antibody, V domains shown, Hybridoma antibody, human variable domains, mouse constant domains; prefix H1M marks the Fc region (isotype not spelled out)) VH: EVQLVESGGGLVKPGGSLRVSCVASGFTFSNAWMTWVRQTPGKGLECVGRIKSRTDGGTVDYVAPVKGRFTISRDDSKNTLYLQMNSLKAEDTAVYYCRADLDYWGQGTLVTVSS VL: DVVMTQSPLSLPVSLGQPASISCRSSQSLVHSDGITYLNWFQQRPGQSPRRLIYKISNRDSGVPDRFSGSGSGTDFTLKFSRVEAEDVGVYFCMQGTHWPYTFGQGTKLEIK
Result string: 0.0016
